Reported values of inhibition for individual entries
# tested-on: Proto-oncogene tyrosine-protein kinase Src (Homo sapiens) (UniProt P12931)
# Sequence (P12931 2-536 limits assumed): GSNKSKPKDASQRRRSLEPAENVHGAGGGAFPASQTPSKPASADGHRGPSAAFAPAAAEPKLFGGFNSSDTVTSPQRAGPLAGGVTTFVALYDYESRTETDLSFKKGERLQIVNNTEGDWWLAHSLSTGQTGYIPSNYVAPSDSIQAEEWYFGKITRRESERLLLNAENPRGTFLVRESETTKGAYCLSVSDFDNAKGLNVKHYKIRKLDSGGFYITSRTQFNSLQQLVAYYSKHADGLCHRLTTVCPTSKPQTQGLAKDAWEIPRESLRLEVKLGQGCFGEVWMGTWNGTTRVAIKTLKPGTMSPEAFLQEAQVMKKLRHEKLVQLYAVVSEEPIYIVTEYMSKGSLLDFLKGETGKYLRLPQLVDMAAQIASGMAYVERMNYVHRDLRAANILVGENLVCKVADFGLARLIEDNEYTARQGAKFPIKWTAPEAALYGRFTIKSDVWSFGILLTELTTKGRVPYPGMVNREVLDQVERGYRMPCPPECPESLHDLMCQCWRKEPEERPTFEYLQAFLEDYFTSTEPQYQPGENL
# condition-label: at 0.1 µM
// units = %; emit number, no label

c1ccc(-c2n[nH]cc2-c2ccnc(-c3ccc(OCCn4ccnc4)cc3)c2)nc1 : -2.63

Param item = CCS(=O)(=O)c1ccc(OC)c(Nc2ncc(-c3cccc(F)c3)o2)c1 ; retrieve measured inhibition.
49.4

Same for CC1=C(C(=O)Nc2ccc3[nH]nc(C)c3c2)C(c2ccc(C(F)(F)F)cc2)CC(=O)N1 (stereo not drawn)
1.6

###

# tested-on: Casein kinase I isoform gamma-3 (Homo sapiens) (UniProt Q9Y6M4)
# Sequence (Q9Y6M4 whole entry, looked up, canonical isoform): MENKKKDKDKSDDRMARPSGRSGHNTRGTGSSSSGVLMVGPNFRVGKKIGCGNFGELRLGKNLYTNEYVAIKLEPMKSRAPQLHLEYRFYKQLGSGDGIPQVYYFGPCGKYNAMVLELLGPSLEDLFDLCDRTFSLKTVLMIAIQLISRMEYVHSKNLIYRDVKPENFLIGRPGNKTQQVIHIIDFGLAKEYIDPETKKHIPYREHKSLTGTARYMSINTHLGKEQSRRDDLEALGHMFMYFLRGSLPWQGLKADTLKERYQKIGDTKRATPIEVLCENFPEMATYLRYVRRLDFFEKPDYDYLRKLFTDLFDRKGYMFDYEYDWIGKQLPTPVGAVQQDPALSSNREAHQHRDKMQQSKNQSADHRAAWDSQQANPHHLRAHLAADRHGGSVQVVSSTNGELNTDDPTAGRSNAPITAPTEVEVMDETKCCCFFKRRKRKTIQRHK
# condition-label: at 1 µM
assay-readout: inhibition (%)
Note: unit % is implicit; provide only the numeric part.

Cc1nnc(-c2cccc(-c3ccc(C(=O)NCC4CC4)cc3)c2)o1 : 3.17

Now let's try a different one.
Given the entry COc1ccc(-c2nn3ncccc3c2-c2ccnc(Nc3ccc(F)c(F)c3)n2)cc1 , report its measured inhibition.
3.22
